# Tested on: P. falciparum 3D7 gametocytes
# Test summary: alamarBlue gametocyte viability assay, strain 3D7
# Format: cell-based, Plasmodium falciparum
# Cond: Malaria Box; DMSO set at 0%, 100 nM epoxomicin set at -100%

- Compound: "COc1cccc(Cn2c(Oc3ccccc3)nc3c2c(=O)n(C)c(=O)n3C)c1"
  Max Resp (%): -1
- Compound: "O=C(Nc1ccc(Br)cc1)Nc1cccc(Cl)c1"
  Max Resp (%): -20
- Compound: "CCOC(=O)c1c(NC(=O)c2ccccc2)sc2c(O)c(CN(CC)CC)ccc12"
  Max Resp (%): -58
- Compound: "Oc1ccc(Cl)cc1CNc1nc2ccccc2[nH]1"
  Max Resp (%): -50
- Compound: "COc1ccc(C(C)=O)cc1N1C(=O)C2C(C1=O)C1(c3ccccc3)C(=O)C2(c2ccccc2)C(c2ccc(C)cc2)=C1c1ccc(C)cc1 (stereo not shown)"
  Max Resp (%): 17
- Compound: "Cc1ccc2c(C)nc(Nc3nc(C)cc(-c4ccccc4)n3)nc2c1"
  Max Resp (%): -50
- Compound: "COc1ccc2nc(N)nc(C)c2c1"
  Max Resp (%): -66
- Compound: "O=C(CCc1ccccc1)c1ccccc1OCC(O)CN1CCCCC1 (stereo not shown)"
  Max Resp (%): -74
- Compound: "COc1ccc(C=C2SC(Nc3ccc(F)cc3)=NC2=O)c(OC)c1"
  Max Resp (%): -24
- Compound: "CCN(CC)c1cc(C)c2cc(NC(=O)c3cccc(OC)c3)ccc2n1"
  Max Resp (%): -20
- Compound: "COc1ccc(/C=C2/SC(=Nc3ccccc3)NC2=O)cc1"
  Max Resp (%): 13
- Compound: "Br.CCN(CC)S(=O)(=O)c1ccc(-c2csc(Nc3ccc(C)c(C)c3)n2)cc1"
  Max Resp (%): -14
- Compound: "CC1CC(C)CN(C(=O)c2ccc(Cl)cc2Cl)C1 (stereo not shown)"
  Max Resp (%): -13
- Compound: "CC(Oc1ccc(NC(=O)c2cccs2)cc1)C(=O)c1ccc(Cl)cc1 (stereo not shown)"
  Max Resp (%): 44
- Compound: "CC(C)(C)c1ccc(C(=O)Nc2c3c(nn2-c2cccc(Cl)c2)CSC3)cc1"
  Max Resp (%): -6
- Compound: "CC(C)CCNCC(O)Cn1c2ccccc2c2ccccc21.Cl (stereo not shown)"
  Max Resp (%): -94
- Compound: "COc1ccc(C(=O)NC(c2ccc(Cl)cc2Cl)c2cc(Cl)c3cccnc3c2O)cc1 (stereo not shown)"
  Max Resp (%): -125
- Compound: "CCN1CCN(Cc2ccc(NC(=O)c3cc4ccc5cccnc5c4[nH]3)cc2)CC1"
  Max Resp (%): -56
- Compound: "COc1ccc(-c2cc(=O)oc3c4c(ccc23)OCN(Cc2ccc(F)cc2)C4)cc1"
  Max Resp (%): -55

---

# System: P. falciparum 3D7 gametocytes
# Test summary: alamarBlue gametocyte viability assay, strain 3D7
# Format: cell-based, Plasmodium falciparum
# Cond: Malaria Box; DMSO set at 0%, 100 nM epoxomicin set at -100%

- Compound: "COc1cccc(C2(C)Nc3ccccc3-c3nc4ccccc4n32)c1 (stereo not drawn)"
  Max Resp [%]: -71
- Compound: "COc1ccc(-c2nc(N3CCN(C(=O)C4CCCCC4)CC3)c3c4c(sc3n2)CCCC4)cc1"
  Max Resp [%]: -12
- Compound: "CCN(CC)c1ccc(NC(=O)c2cccs2)cc1"
  Max Resp [%]: 20
- Compound: "CCCCNc1nc(NC(C)(C)C)nc(NC(C)(C)C)n1"
  Max Resp [%]: -93
- Compound: "Cc1sc2ncnc(Sc3nc4ccccc4[nH]3)c2c1C"
  Max Resp [%]: -72
- Compound: "O=C(Nc1ccc(-c2nc3cc4ccccc4cc3[nH]2)cc1)c1cccc(Br)c1"
  Max Resp [%]: -32
- Compound: "CCCCCCC(O)(c1ccc(F)cc1)C(CN1CCOCC1)c1ccccc1.Cl (stereo not drawn)"
  Max Resp [%]: -59
- Compound: "CCCc1cc(O)c2c3c(c(=O)oc2c1)CN(C)CC3"
  Max Resp [%]: -28
- Compound: "CC(C)OCc1cc(CN2CCN(c3cccc(Cl)c3)CC2)c(O)c2ncccc12"
  Max Resp [%]: -97

---

# key: entry, value: IC50
# Tested on: P. falciparum HB3 gametocytes
# Test summary: alamarBlue gametocyte viability assay, strain HB3
# Format: cell-based, Plasmodium falciparum
# Cond: Plasmodium falciparum, HB3, read-out: HB3-gametocytes IC50
Starred links: 1 amine or outer side, 2 acyl side, 3 side chain; linkers in the order of their positions; H or OH if unused. Positions of bridges follow the written chain, without caps; N, C: chain ends. Non-standard residues stand in square brackets, D forms with d. Residues, ends and D or L forms follow the SMILES beside them. Chains are numbered I, II in the order given. Actinocin(9to1) = Cc1c2oc3c(C)ccc(C(=O)[*:1])c3nc-2c(C(=O)[*:2])c(N)c1=O; NMeV = CN[C@H](C(=O)O)C(C)C; Sar = CNCC(=O)O

- Compound: "Cc1c2oc3c(C)ccc(C(=O)N[C@@H]4C(=O)N[C@H](C(C)C)C(=O)N5CCC[C@H]5C(=O)N(C)CC(=O)N(C)[C@@H](C(C)C)C(=O)O[C@@H]4C)c3nc-2c(C(=O)N[C@@H]2C(=O)N[C@H](C(C)C)C(=O)N3CCC[C@H]3C(=O)N(C)CC(=O)N(C)[C@@H](C(C)C)C(=O)O[C@@H]2C)c(N)c1=O [Dactinomycin] (I: T[dV]P[Sar][NMeV] / II: T[dV]P[Sar][NMeV]; ester I:1-I:C, II:1-II:C; linker I:N-II:N via Actinocin(9to1))"
  IC50 [nM]: 19
- Compound: "C/C=C1\\NC(=O)[C@H]2CSSCC/C=C/[C@H](CC(=O)N[C@H](C(C)C)C(=O)N2)OC(=O)[C@H](C(C)C)NC1=O [Romidepsin]"
  IC50 [nM]: 148
- Compound: "CNc1ccc2oc(C[C@H]3O[C@@]4(CC[C@H]3C)O[C@H]([C@H](C)C(=O)c3ccc[nH]3)[C@H](C)C[C@H]4C)nc2c1C(=O)O [Calcimycin]"
  IC50 [nM]: 5900
- Compound: "S=C(SSC(=S)N1CCCCC1)N1CCCCC1 [Dicyclopentamethylenethiuram disulfide]"
  IC50 [nM]: 743
- Compound: "CC[C@@H](C(=O)[C@@H](C)[C@@H](O)[C@H](C)[C@@H]1O[C@@H]([C@@H](CC)C(=O)O)CC[C@@H]1C)[C@H]1O[C@]2(C=C[C@@H](O)[C@]3(CC[C@@](C)([C@H]4CC[C@](O)(CC)[C@H](C)O4)O3)O2)[C@H](C)C[C@@H]1C [Salinomycin sodium]"
  IC50 [nM]: 372
- Compound: "CCN(CC)Cc1nccn1-c1ccc([N+](=O)[O-])cc1C(=O)c1ccccc1Cl [Nizofenone]"
  IC50 [nM]: 14800

---

# Test system: P. falciparum 3D7 gametocytes
# Test summary: alamarBlue gametocyte viability assay, strain 3D7
# Type: cell-based, Plasmodium falciparum
# Cond: Malaria Box; DMSO set at 0%, 100 nM epoxomicin set at -100%
# key: entry, value: Max Resp

- Compound: "CN(C)c1ccc(C=Cc2nc(=O)c3ccccc3o2)cc1 [MMV006309]"
  Max Resp: "2%"
- Compound: "Cl.c1ccc2c(NCCCCCCNc3c4c(nc5ccccc35)CCCC4)c3c(nc2c1)CCCC3 [MMV019555]"
  Max Resp: "-104%"
- Compound: "Cc1cc(=O)oc2c1ccc1oc(C(=O)c3ccccc3)c(C)c12 [MMV006753]"
  Max Resp: "3%"
- Compound: "O=c1c2c([nH]c3ccccc13)CCCC2 [MMV665843]"
  Max Resp: "-7%"
- Compound: "COc1ccccc1N1CCN(C(CNS(=O)(=O)c2ccc(Cl)cc2)c2cccnc2)CC1 (stereo not drawn) [MMV665914]"
  Max Resp: "-63%"
- Compound: "Cl.Cn1c(=O)n(C)c2cc(CNCCNc3ccnc4cc(Cl)ccc34)ccc21 [MMV665875]"
  Max Resp: "-41%"
- Compound: "COc1ccc(C(=O)Nc2nonc2-c2ccc(OC)c(OC)c2)cc1Cl [MMV011567]"
  Max Resp: "1%"
- Compound: "CCc1ccc(Nc2cc(C)c3ccc(O)cc3n2)cc1.Cl [MMV000570]"
  Max Resp: "-29%"
- Compound: "Cc1ccc(CN2CCC(C(=O)Nc3ccc(-c4cc5ccccc5[nH]4)cc3)CC2)o1 [MMV666071]"
  Max Resp: "-71%"

---

# Test system: P. falciparum 3D7 gametocytes
# Test summary: alamarBlue gametocyte viability assay, strain 3D7
# Type: cell-based, Plasmodium falciparum
# Cond: Malaria Box; DMSO set at 0%, 100 nM epoxomicin set at -100%
# key: entry, value: Max Resp

- Compound: "CCN1CCN(c2c(C(=O)c3ccccc3)cnc3cc(OC)c(OC)cc23)CC1"
  Value units: "%"
  Max Resp: -32
- Compound: "Oc1ccc(Br)cc1CN1CCN(Cc2ccc(Cl)cc2)CC1"
  Value units: "%"
  Max Resp: -58
- Compound: "COc1ccc(-c2cn3c(C(=O)Nc4ccccc4Cl)c(-c4ccccc4)c4c3n2CCCC4)cc1"
  Value units: "%"
  Max Resp: -73
- Compound: "COc1ccccc1N1C(=N)SC(=Cc2ccc(OCc3ccccc3F)cc2)C1=O"
  Value units: "%"
  Max Resp: -2
- Compound: "Cc1nc2ccccc2c(O)c1CC=C(Cl)Cl"
  Value units: "%"
  Max Resp: 5
- Compound: "COc1cc(OC)cc(N2C(=O)N(Cc3ccc(C(C)(C)C)cc3)c3ccccc3S2(=O)=O)c1"
  Value units: "%"
  Max Resp: 0
- Compound: "O=C(CSc1ccc2nnc(-c3cccc(F)c3)n2n1)Nc1ccc2c(c1)OCO2"
  Value units: "%"
  Max Resp: -14
- Compound: "O=C1c2ccc3c4c(ccc(c24)C(=O)N1CCCCO)C(=O)N(CCCCO)C3=O"
  Value units: "%"
  Max Resp: -71
- Compound: "COc1ccc(C=C2SC(=N)N(c3ccccc3OC)C2=O)cc1"
  Value units: "%"
  Max Resp: -7
- Compound: "Cl.Oc1ccccc1CNCC12CC3CC(CC(C3)C1)C2"
  Value units: "%"
  Max Resp: -43
- Compound: "CSC1=NC(=Nc2c(C)cccc2C)C2(CCC(C(C)(C)C)CC2)N1c1ccc(Cl)cc1 (centres unmarked)"
  Value units: "%"
  Max Resp: 14
- Compound: "C=CC12CCN(CC1)C(C(O)c1ccnc3ccc(OC)cc13)C2.Cl (centres unmarked)"
  Value units: "%"
  Max Resp: -31
- Compound: "COc1cccc(C=Cc2nc(=O)c3ccccc3o2)c1OC"
  Value units: "%"
  Max Resp: 19
- Compound: "Cc1ccc(Nc2nc(-c3ccccn3)cs2)cc1"
  Value units: "%"
  Max Resp: -73
- Compound: "Oc1ccc2ccccc2c1CNc1nc2ccccc2[nH]1"
  Value units: "%"
  Max Resp: -67
- Compound: "O=C(Nc1ccc(CN2CCOCC2)cc1)c1ccc(-c2cc(Cl)ccc2Cl)o1"
  Value units: "%"
  Max Resp: -23
- Compound: "CC(=O)NCCc1nc2ccccc2n1Cc1ccc(C(C)C)cc1"
  Value units: "%"
  Max Resp: -70
- Compound: "CCCCCCn1c(=N)n(CC(O)COc2cccc(C)c2)c2ccccc21.Cl (centres unmarked)"
  Value units: "%"
  Max Resp: -110
- Compound: "CN(N=O)C1=C(NC2CCCCC2)C(=O)c2ccccc2C1=O"
  Value units: "%"
  Max Resp: -59
- Compound: "O=C(NCC(c1ccsc1)N1CCCCCC1)c1ccc(C(F)(F)F)cc1 (centres unmarked)"
  Value units: "%"
  Max Resp: -37
- Compound: "Clc1ccc2c(N3CCCC3)ccnc2c1"
  Value units: "%"
  Max Resp: -75
- Compound: "O=C(c1ccccc1F)N(Cc1ccc(Cl)cc1)c1ccccn1"
  Value units: "%"
  Max Resp: -26
- Compound: "CCOc1cc(Cl)c(C(C)NC(=O)c2ccccc2)cc1OCC (centres unmarked)"
  Value units: "%"
  Max Resp: -48
- Compound: "CC(C)=CCN1CCC(C(=O)Nc2ccc(-c3nc4ccccc4[nH]3)cc2)CC1"
  Value units: "%"
  Max Resp: -77
- Compound: "CN(C)CCNc1cc(-c2ccccc2)nc2ccccc12"
  Value units: "%"
  Max Resp: -79
- Compound: "CCOc1ccccc1NC(=O)CN1CCN(C(=O)c2ccco2)CC1"
  Value units: "%"
  Max Resp: 1
- Compound: "CN1CCN(c2ccc(Nc3c4ccccc4nc4ccccc34)cc2)CC1"
  Value units: "%"
  Max Resp: -98
- Compound: "N#Cc1nc(Cc2cccc3ccccc23)oc1N1CCN(C(c2ccccc2)c2ccccc2)CC1"
  Value units: "%"
  Max Resp: -1
- Compound: "COc1ccc(CNC2CCN(c3ccc(NC(=O)c4cccc(Cl)c4)cc3)CC2)cc1OC"
  Value units: "%"
  Max Resp: -95
- Compound: "CC1CCN(Cc2ccc(NC(=O)c3cc4ccc5cccnc5c4[nH]3)cc2)CC1"
  Value units: "%"
  Max Resp: -75
- Compound: "CCC(c1ccccc1)c1nn2c(-c3cccs3)nnc2s1 (centres unmarked)"
  Value units: "%"
  Max Resp: -47
- Compound: "Oc1ccccc1CN1CCC2(CCCN(Cc3ccccc3F)C2)C1 (centres unmarked)"
  Value units: "%"
  Max Resp: -46
- Compound: "Cc1ccc(F)cc1NC(=O)c1cc(Cl)ccc1Nc1ccccc1"
  Value units: "%"
  Max Resp: -41
- Compound: "O=C(Nc1ccc(F)c(Cl)c1)Nc1ccc(Cl)c(Cl)c1"
  Value units: "%"
  Max Resp: -94
- Compound: "OC1CCCCC1C1(NC(=S)Nc2ccccc2)CCCCC1 (centres unmarked)"
  Value units: "%"
  Max Resp: -81
- Compound: "Cc1c(C)n(CC(O)CNC2CCCCC2C)c2ccccc12 (centres unmarked)"
  Value units: "%"
  Max Resp: -89
- Compound: "Cc1ccc(C)c(Cn2c(N3CCC(C(=O)NCc4cccs4)CC3)nc3ccccc32)c1"
  Value units: "%"
  Max Resp: -65
- Compound: "C[n+]1c2ccccc2nc2ccc(NCCO)cc21"
  Value units: "%"
  Max Resp: -85
